- System: Escherichia coli TOP10;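 note: peptides expressed intracellularly from a pBAD plasmid library in pooled LB shake-flask culture, induced with 0.3% L-arabinose, DNA abundance read by NGS, three biological replicates, DESeq2 with apeglm shrinkage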
- assay_protocol: shrunken log2 fold change of peptide-encoding DNA abundance (4.5 h post-induction vs induction); higher = less antimicrobial activity (less host growth inhibition)
- condition_summary: time post-induction: 4.5 h; library: site-saturation at positions 5, 18, 19, 20

>  <record_sequence>
RRIRMRPPRLPRPRPRPKFFPRP

>  <shrunken log2 fold change>
0.0606

$$$$
>  <record_sequence>
RRIRARPPRLPRPRPRPQAYPRP

>  <shrunken log2 fold change>
-0.0327

$$$$
>  <record_sequence>
RRIRSRPPRLPRPRPRPFGSPRP

>  <shrunken log2 fold change>
-0.178

$$$$
>  <record_sequence>
RRIRPRPPRLPRPRPRPWMPPRP

>  <shrunken log2 fold change>
-0.00504

$$$$
>  <record_sequence>
RRIRCRPPRLPRPRPRPYGQPRP

>  <shrunken log2 fold change>
-1.33

$$$$
>  <record_sequence>
RRIRCRPPRLPRPRPRPTRGPRP

>  <shrunken log2 fold change>
0.807

$$$$
>  <record_sequence>
RRIRIRPPRLPRPRPRPNQQPRP

>  <shrunken log2 fold change>
0.0352

$$$$
>  <record_sequence>
RRIRGRPPRLPRPRPRPWAHPRP

>  <shrunken log2 fold change>
0.0122

$$$$
>  <record_sequence>
RRIRWRPPRLPRPRPRPDGHPRP

>  <shrunken log2 fold change>
0.0237

$$$$
>  <record_sequence>
RRIRKRPPRLPRPRPRPWQRPRP

>  <shrunken log2 fold change>
-0.0202

$$$$
>  <record_sequence>
RRIRVRPPRLPRPRPRPLHVPRP

>  <shrunken log2 fold change>
-0.311

$$$$
>  <record_sequence>
RRIRYRPPRLPRPRPRPQGAPRP

>  <shrunken log2 fold change>
-0.238

$$$$
>  <record_sequence>
RRIRRRPPRLPRPRPRPLPPPRP

>  <shrunken log2 fold change>
0.937

$$$$
>  <record_sequence>
RRIRQRPPRLPRPRPRPCLDPRP

>  <shrunken log2 fold change>
-0.0986

$$$$
>  <record_sequence>
RRIRDRPPRLPRPRPRPRSMPRP

>  <shrunken log2 fold change>
0.211

$$$$
>  <record_sequence>
RRIRLRPPRLPRPRPRPKEWPRP

>  <shrunken log2 fold change>
0.157

$$$$
>  <record_sequence>
RRIRYRPPRLPRPRPRPQFAPRP

>  <shrunken log2 fold change>
0.0437

$$$$
>  <record_sequence>
RRIRQRPPRLPRPRPRPENYPRP

>  <shrunken log2 fold change>
0.309

$$$$
>  <record_sequence>
RRIRIRPPRLPRPRPRPKCGPRP

>  <shrunken log2 fold change>
-0.0309

$$$$
>  <record_sequence>
RRIRMRPPRLPRPRPRPQKNPRP

>  <shrunken log2 fold change>
0.628

$$$$
>  <record_sequence>
RRIRIRPPRLPRPRPRPMENPRP

>  <shrunken log2 fold change>
0.0119

$$$$
>  <record_sequence>
RRIRARPPRLPRPRPRPKQDPRP

>  <shrunken log2 fold change>
0.734

$$$$
>  <record_sequence>
RRIRYRPPRLPRPRPRPSLYPRP

>  <shrunken log2 fold change>
-1

$$$$
>  <record_sequence>
RRIRRRPPRLPRPRPRPGCLPRP

>  <shrunken log2 fold change>
0.702

$$$$
>  <record_sequence>
RRIRYRPPRLPRPRPRPGWEPRP

>  <shrunken log2 fold change>
-0.143

$$$$
>  <record_sequence>
RRIRCRPPRLPRPRPRPSTVPRP

>  <shrunken log2 fold change>
-0.443

$$$$
>  <record_sequence>
RRIRIRPPRLPRPRPRPGSQPRP

>  <shrunken log2 fold change>
-0.0143

$$$$
>  <record_sequence>
RRIRGRPPRLPRPRPRPEISPRP

>  <shrunken log2 fold change>
1.5

$$$$
>  <record_sequence>
RRIRGRPPRLPRPRPRPPCAPRP

>  <shrunken log2 fold change>
0.978

$$$$
>  <record_sequence>
RRIRQRPPRLPRPRPRPKWFPRP

>  <shrunken log2 fold change>
-0.107

$$$$
>  <record_sequence>
RRIRLRPPRLPRPRPRPWGPPRP

>  <shrunken log2 fold change>
-0.24

$$$$
>  <record_sequence>
RRIRARPPRLPRPRPRPNNTPRP

>  <shrunken log2 fold change>
-0.423

$$$$

Origin of measurements: the supplement of paper PMC9112550
